- target or system: Peroxisome proliferator-activated receptor gamma/Nuclear receptor coactivator 1 (Homo sapiens, UniProt P37231)
- Sequence (P37231 whole entry): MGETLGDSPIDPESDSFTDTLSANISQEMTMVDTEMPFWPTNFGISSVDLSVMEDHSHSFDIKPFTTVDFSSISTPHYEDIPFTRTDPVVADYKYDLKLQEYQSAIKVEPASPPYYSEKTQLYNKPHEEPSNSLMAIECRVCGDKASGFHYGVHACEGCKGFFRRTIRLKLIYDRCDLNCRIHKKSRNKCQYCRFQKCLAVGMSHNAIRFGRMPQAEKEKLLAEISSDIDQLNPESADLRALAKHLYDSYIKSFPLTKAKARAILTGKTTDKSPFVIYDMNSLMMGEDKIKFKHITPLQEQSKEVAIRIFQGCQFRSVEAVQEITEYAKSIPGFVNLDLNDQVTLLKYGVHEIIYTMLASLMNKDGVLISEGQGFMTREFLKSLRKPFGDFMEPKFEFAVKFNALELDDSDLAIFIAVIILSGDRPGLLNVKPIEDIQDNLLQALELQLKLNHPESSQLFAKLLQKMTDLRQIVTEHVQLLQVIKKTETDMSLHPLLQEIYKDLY
- Sequence (Q15788 whole entry, further chain): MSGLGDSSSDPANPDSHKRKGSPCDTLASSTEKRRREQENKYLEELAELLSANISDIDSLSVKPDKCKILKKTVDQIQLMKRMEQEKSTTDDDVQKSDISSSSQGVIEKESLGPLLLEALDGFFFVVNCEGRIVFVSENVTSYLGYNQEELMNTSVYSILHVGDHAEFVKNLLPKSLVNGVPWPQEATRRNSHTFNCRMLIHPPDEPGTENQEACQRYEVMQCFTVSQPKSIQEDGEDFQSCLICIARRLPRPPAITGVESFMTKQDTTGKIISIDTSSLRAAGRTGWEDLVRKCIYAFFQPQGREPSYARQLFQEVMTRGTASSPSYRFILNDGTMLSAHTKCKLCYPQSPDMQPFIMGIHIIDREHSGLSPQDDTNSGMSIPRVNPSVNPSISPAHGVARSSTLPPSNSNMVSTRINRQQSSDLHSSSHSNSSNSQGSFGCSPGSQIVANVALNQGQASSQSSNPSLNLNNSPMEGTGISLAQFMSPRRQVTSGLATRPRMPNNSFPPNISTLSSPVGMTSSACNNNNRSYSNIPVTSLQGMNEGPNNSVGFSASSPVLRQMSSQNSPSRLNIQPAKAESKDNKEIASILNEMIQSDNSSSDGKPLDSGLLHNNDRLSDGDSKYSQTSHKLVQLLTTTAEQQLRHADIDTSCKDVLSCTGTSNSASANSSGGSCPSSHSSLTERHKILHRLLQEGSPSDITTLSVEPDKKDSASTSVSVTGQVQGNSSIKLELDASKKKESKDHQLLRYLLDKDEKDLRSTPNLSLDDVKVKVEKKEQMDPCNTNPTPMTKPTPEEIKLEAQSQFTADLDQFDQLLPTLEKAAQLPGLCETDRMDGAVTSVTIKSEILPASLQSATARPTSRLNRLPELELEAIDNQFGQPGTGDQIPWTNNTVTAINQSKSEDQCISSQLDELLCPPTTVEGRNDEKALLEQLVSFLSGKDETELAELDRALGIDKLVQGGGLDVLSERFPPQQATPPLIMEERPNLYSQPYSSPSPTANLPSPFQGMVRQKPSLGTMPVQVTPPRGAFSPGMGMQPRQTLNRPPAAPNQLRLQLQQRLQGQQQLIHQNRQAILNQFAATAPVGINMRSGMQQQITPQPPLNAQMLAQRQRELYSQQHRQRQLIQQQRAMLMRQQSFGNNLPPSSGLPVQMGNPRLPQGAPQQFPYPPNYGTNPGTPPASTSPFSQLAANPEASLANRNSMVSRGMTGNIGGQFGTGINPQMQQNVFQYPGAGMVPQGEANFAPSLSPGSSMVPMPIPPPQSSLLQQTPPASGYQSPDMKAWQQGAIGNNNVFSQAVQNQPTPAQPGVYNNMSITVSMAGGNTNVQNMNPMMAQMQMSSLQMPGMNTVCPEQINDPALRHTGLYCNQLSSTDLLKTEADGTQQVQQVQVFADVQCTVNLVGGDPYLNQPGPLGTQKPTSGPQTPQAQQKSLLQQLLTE
- experimental details: TR-FRET dose response biochemical High Throughput Screening assay for agonists of the steroid receptor coactivator 1 (SRC-1) recruitment by the peroxisome proliferator-activated receptor gamma (PPAR gamma): non-selective agonists. [Related pubchem assays (depositor defined):AID1300, AID1808, AID504735, AID631]
- Type: protein assay
Activity calls are given as the source filed them.
Classes used: TRUE for active, FALSE for inactive

[
  {
    "smiles repr": "O=c1c(Cl)c(N2CCN(S(=O)(=O)c3ccc(F)cc3)CC2)cnn1-c1cccc(Cl)c1",
    "assigned label": "TRUE"
  },
  {
    "smiles repr": "CC(C)Sc1oc(-c2ccco2)nc1S(=O)(=O)c1ccccc1",
    "assigned label": "TRUE"
  },
  {
    "smiles repr": "ClCc1csc(-c2ccccc2Cl)n1",
    "assigned label": "FALSE"
  },
  {
    "smiles repr": "COC(=O)c1cc(Br)c(=O)n(-c2nccs2)c1",
    "assigned label": "FALSE"
  }
]

----------
- target or system: DNA repair protein RAD52 homolog (Homo sapiens, UniProt P43351)
- Sequence (P43351 whole entry): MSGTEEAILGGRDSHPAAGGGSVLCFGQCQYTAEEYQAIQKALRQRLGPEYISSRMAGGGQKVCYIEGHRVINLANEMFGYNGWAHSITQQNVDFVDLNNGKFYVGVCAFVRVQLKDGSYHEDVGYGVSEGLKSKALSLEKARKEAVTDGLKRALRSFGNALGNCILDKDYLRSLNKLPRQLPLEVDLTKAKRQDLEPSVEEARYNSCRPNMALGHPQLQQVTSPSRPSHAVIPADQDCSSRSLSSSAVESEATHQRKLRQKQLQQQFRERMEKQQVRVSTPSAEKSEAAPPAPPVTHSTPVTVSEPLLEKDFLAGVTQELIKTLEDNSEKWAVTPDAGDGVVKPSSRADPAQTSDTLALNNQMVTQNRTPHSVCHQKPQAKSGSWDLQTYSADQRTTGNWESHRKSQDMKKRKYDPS
- Assay type: functional, biochemical
Active and inactive are the calls of the source.
parameter measured: AC50

[
  {
    "compound": "Cc1cc(C)c2c(=N)c3ccccc3n(CCCCCCCCn3c4ccccc4c(=N)c4c(C)cc(C)nc43)c2n1",
    "parameter measured": "AC50",
    "measured value": "< 0.364 µM (active)"
  },
  {
    "compound": "COc1cc(COCC(O)CN2CCN(CCN3C(=O)c4cccc5cccc(c45)C3=O)CC2)cc(OC)c1OC (stereo not drawn)",
    "parameter measured": "AC50",
    "measured value": "3.54 µM (active)"
  },
  {
    "compound": "Oc1ccc(Nc2nc(N3CCCC3)c3ccccc3n2)cc1",
    "parameter measured": "AC50",
    "measured value": "13.3 µM (active)"
  },
  {
    "compound": "C[C@@H]1NC(=O)[C@H](CCCN=C(N)N)NC(=O)c2cc([N+](=O)[O-])cc(I)c2NCCC[C@@H](C(N)=O)NC1=O",
    "parameter measured": "AC50",
    "measured value": "12.3 µM (active)"
  },
  {
    "compound": "CN(C)CCNC(=O)c1cccc(-c2cnc3c(NC=O)cc(-c4cc(F)c(F)c(F)c4)cn23)c1",
    "parameter measured": "AC50",
    "measured value": "7.21 µM (active)"
  },
  {
    "compound": "C[N+](C)(C)CC(=O)N/N=C/c1c2ccccc2cc2ccccc12",
    "parameter measured": "AC50",
    "measured value": "4.16 µM (active)"
  },
  {
    "compound": "COc1cccc(-c2cc3nc(NCCCN(C)C)n(C)c(=O)c3s2)c1",
    "parameter measured": "AC50",
    "measured value": "7.04 µM (active)"
  },
  {
    "compound": "CN1CC[C@@H]2CN[C@H](c3ccccc3Br)C[C@@H]21",
    "parameter measured": "AC50",
    "measured value": "4.58 µM (active)"
  }
]

----------
Measured AC50 on Cytochrome P450 2D6 (Homo sapiens, UniProt P10635) follows.
Sequence (P10635 whole entry): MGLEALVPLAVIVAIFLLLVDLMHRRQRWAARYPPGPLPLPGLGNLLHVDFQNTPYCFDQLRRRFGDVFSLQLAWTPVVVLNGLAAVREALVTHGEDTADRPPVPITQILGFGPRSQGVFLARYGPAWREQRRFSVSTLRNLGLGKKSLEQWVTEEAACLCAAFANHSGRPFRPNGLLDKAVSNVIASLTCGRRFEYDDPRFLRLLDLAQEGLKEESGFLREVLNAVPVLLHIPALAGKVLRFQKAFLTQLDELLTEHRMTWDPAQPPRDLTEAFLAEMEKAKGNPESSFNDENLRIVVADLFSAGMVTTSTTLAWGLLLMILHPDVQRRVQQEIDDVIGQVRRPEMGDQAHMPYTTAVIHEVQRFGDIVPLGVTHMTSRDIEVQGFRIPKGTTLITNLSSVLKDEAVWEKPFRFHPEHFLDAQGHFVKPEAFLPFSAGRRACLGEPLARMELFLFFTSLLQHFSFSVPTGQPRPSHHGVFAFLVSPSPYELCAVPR
parameter measured: AC50

[
  {
    "molecule": "O=C(CCc1nc(-c2ccccc2)no1)NCCc1ccccc1",
    "measured value": "39.8 µM (inconclusive)"
  },
  {
    "molecule": "CCOC(=O)C(=Cc1ccc(-c2ccsc2C(=O)OC)o1)C(=O)OCC",
    "measured value": "39.8 µM (inconclusive)"
  },
  {
    "molecule": "COc1cccc(N(C(=O)Cn2nnc(-c3ccc(C)cc3)n2)C(C(=O)NC(C)(C)C)c2c[nH]c3ccccc23)c1 (centres undefined)",
    "measured value": "20 µM (inconclusive)"
  },
  {
    "molecule": "CN1CCN(c2ncncc2-c2ccccc2C(F)(F)F)CC1",
    "measured value": "20 µM (inconclusive)"
  },
  {
    "molecule": "CCC(=O)O[C@@]1(C(=O)CCl)[C@@H](C)C[C@@H]2[C@H]3CCC4=CC(=O)C=C[C@@]4(C)[C@]3(F)[C@@H](O)C[C@@]21C",
    "measured value": "10 µM (inconclusive)"
  },
  {
    "molecule": "Oc1ccc(Cl)cc1/C=N\\c1cnc2ccccc2c1",
    "measured value": "5.01 µM (inconclusive)"
  },
  {
    "molecule": "CCN(c1ccccc1)S(=O)(=O)c1ccc(NC(=S)NC(=O)c2ccc(Br)o2)cc1",
    "measured value": "3.16 µM (inconclusive)"
  },
  {
    "molecule": "COc1ccc(NC(=O)CSc2nc3ccccc3cc2Cc2ccccc2)cc1",
    "measured value": "0.2 µM (inconclusive)"
  },
  {
    "molecule": "Clc1cccc(Nc2nnc(-c3ccccc3)c3ccccc23)c1",
    "measured value": "2 µM (inconclusive)"
  },
  {
    "molecule": "COc1ccc(-c2cc(C(F)F)nc(-n3nc(C)cc3C)n2)cc1",
    "measured value": "22.4 µM (inconclusive)"
  },
  {
    "molecule": "CCNc1ncc2nc(-c3ccc(F)cc3)c(=O)n(C[C@H]3CCCO3)c2n1",
    "measured value": "0.631 µM (inconclusive)"
  },
  {
    "molecule": "Cc1nn(C(=O)CN2C(=O)c3ccccc3C2=O)c(C)c1Br",
    "measured value": "7.08 µM (inconclusive)"
  },
  {
    "molecule": "CSc1nncn1/N=C/c1ccc2c(c1)OCO2",
    "measured value": "22.4 µM (inconclusive)"
  },
  {
    "molecule": "Cc1cc(C(C)(C)CC(C)(C)C)ccc1OCCOCC[N+](C)(C)Cc1ccccc1 [METHYLBENZETHONIUM]",
    "measured value": "12.6 µM (inconclusive)"
  }
]

----------
Here, each record is paired with measured IC50 data.
- target or system: G-protein coupled receptor 55 (Homo sapiens)
- Sequence (Q9Y2T6 whole entry): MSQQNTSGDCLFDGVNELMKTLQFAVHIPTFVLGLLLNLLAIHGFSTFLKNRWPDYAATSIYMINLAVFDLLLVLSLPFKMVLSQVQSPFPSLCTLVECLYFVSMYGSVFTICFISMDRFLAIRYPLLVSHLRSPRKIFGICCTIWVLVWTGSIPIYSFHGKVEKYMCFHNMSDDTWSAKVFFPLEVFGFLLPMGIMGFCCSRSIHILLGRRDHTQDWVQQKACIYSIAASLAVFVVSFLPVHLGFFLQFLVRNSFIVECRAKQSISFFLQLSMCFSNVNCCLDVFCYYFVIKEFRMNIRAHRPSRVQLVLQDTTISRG
- experimental details: inhibition of LPI-stimulated GPR55 beta-arrestin translocation – imaging, U2OS, beta-arrestin-GFP, LPI agonist, primary screen (AID 2013);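 also: antagonist potency measured as reduced agonist-driven arrestin aggregation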
- Format: functional
Calls of active or inactive are those of the source.

[
  {
    "smiles repr": "COc1ccccc1NS(=O)(=O)c1cc(NC(=S)NCCN2CCOCC2)ccc1N1CCOCC1",
    "target or system": "G-protein coupled receptor 55 (Homo sapiens)",
    "IC50": "3.2 µM (active)"
  },
  {
    "smiles repr": "CN1C(=O)/C(=C/c2c[nH]nc2-c2ccccc2)SC1=S",
    "target or system": "G-protein coupled receptor 55 (Homo sapiens)",
    "IC50": "0.653 µM (active)"
  },
  {
    "smiles repr": "CCCN(CCC)C(=O)CSc1nc2c(sc(=S)n2-c2ccc(OCC)cc2)c(=O)[nH]1",
    "target or system": "G-protein coupled receptor 55 (Homo sapiens)",
    "IC50": "1.77 µM (active)"
  },
  {
    "smiles repr": "Cc1cccn2c(=O)c3cc(C(=O)NC4CCCC4)c(=N)n(C4CCCC4)c3nc12",
    "target or system": "G-protein coupled receptor 55 (Homo sapiens)",
    "IC50": "1.24 µM (active)"
  }
]

----------
- target or system: Replicative DNA helicase DnaB (Mycobacterium tuberculosis)
- Sequence (P9WMR3 whole entry): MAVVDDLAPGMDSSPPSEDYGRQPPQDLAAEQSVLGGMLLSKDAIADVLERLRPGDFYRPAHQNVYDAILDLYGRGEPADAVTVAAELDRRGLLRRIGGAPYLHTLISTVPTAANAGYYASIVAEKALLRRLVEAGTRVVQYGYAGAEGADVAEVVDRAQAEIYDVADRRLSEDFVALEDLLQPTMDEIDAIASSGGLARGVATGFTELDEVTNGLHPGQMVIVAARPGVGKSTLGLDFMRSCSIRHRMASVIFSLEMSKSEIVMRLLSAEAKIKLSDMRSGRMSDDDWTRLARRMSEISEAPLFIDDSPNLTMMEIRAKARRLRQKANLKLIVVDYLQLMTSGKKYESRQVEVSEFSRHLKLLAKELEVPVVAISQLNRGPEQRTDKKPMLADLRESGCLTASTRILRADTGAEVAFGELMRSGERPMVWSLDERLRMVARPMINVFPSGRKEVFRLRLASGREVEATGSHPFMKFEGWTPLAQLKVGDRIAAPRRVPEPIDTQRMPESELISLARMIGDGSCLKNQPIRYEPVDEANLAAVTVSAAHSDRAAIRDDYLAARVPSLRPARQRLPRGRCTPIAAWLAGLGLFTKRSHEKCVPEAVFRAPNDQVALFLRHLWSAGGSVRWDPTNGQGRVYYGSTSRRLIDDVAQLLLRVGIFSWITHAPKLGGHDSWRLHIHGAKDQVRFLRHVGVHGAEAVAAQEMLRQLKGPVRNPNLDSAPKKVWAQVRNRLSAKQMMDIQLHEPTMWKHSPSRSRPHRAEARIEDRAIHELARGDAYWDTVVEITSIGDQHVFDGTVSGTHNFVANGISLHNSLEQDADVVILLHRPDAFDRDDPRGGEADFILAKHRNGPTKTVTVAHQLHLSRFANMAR
- experimental details: DnaB intein splicing inhibitors, dose response, biochemical, cell-free fluorescence (AID 449749)
- Format: functional
Activity calls are given as the source filed them.
Classes used: class 1 (active), class 0 (inactive)

[
  {
    "compound": "COc1cc(NCCCC(C)N)c2ncccc2c1 (configuration not stated)",
    "target or system": "Replicative DNA helicase DnaB (Mycobacterium tuberculosis)",
    "assigned label": "class 1"
  },
  {
    "compound": "Cn1cnc([N+](=O)[O-])c1S(=O)(=O)c1ccc(Cl)cc1",
    "target or system": "Replicative DNA helicase DnaB (Mycobacterium tuberculosis)",
    "assigned label": "class 1"
  },
  {
    "compound": "CCC(=O)OCCNc1cc(Sc2nc3ccccc3s2)c2nonc2c1[N+](=O)[O-]",
    "target or system": "Replicative DNA helicase DnaB (Mycobacterium tuberculosis)",
    "assigned label": "class 1"
  },
  {
    "compound": "CCCn1c(CC)nc([N+](=O)[O-])c1S(=O)(=O)c1ccccc1",
    "target or system": "Replicative DNA helicase DnaB (Mycobacterium tuberculosis)",
    "assigned label": "class 0"
  },
  {
    "compound": "CC1(C)CC(C(CCN(Cc2ccccc2)C(=O)c2ccco2)c2ccc(F)cc2)CCO1 (configuration not stated)",
    "target or system": "Replicative DNA helicase DnaB (Mycobacterium tuberculosis)",
    "assigned label": "class 1"
  },
  {
    "compound": "CN1c2ccccc2C(C)(C)C12C=Nc1c(ccc3ccccc13)O2 (configuration not stated)",
    "target or system": "Replicative DNA helicase DnaB (Mycobacterium tuberculosis)",
    "assigned label": "class 1"
  },
  {
    "compound": "CCOC(=O)C/C(C)=N/NC(=O)COc1ccccc1C",
    "target or system": "Replicative DNA helicase DnaB (Mycobacterium tuberculosis)",
    "assigned label": "class 1"
  },
  {
    "compound": "CC1=NN(c2ccc(C)cc2C)C(=O)C1C(c1cccc(O)c1)C1C(=O)N(c2ccc(C)cc2C)N=C1C (configuration not stated)",
    "target or system": "Replicative DNA helicase DnaB (Mycobacterium tuberculosis)",
    "assigned label": "class 1"
  },
  {
    "compound": "CNCc1ccccc1Sc1ccc(O)c(O)c1",
    "target or system": "Replicative DNA helicase DnaB (Mycobacterium tuberculosis)",
    "assigned label": "class 0"
  },
  {
    "compound": "Cc1cc(F)ccc1S(=O)(=O)N(C(=O)c1ccncc1)c1ccc(OC(=O)c2ccncc2)cc1",
    "target or system": "Replicative DNA helicase DnaB (Mycobacterium tuberculosis)",
    "assigned label": "class 1"
  },
  {
    "compound": "O=C(Nc1ccccc1)Nc1ccc(O)c2ccccc12",
    "target or system": "Replicative DNA helicase DnaB (Mycobacterium tuberculosis)",
    "assigned label": "class 1"
  },
  {
    "compound": "Cc1cc(C)c(S(=O)(=O)Nc2cc(SCC(=O)O)c(O)c3ccccc23)cc1C",
    "target or system": "Replicative DNA helicase DnaB (Mycobacterium tuberculosis)",
    "assigned label": "class 1"
  },
  {
    "compound": "c1ccc(-c2nc(N3CCCCCC3)c3ccccc3n2)nc1",
    "target or system": "Replicative DNA helicase DnaB (Mycobacterium tuberculosis)",
    "assigned label": "class 1"
  },
  {
    "compound": "Cc1ccc(NC2=C(N3CCOCC3)C(=O)c3ccccc3C2=O)cc1",
    "target or system": "Replicative DNA helicase DnaB (Mycobacterium tuberculosis)",
    "assigned label": "class 1"
  },
  {
    "compound": "COc1ccc(C(CCN(Cc2ccc(OC)c(OC)c2)C(=O)CCl)c2ccccc2)cc1 (configuration not stated)",
    "target or system": "Replicative DNA helicase DnaB (Mycobacterium tuberculosis)",
    "assigned label": "class 1"
  },
  {
    "compound": "Cc1ccc(N/C([S-])=C(/C(=O)c2ccc(F)cc2)[n+]2ccccc2)cc1",
    "target or system": "Replicative DNA helicase DnaB (Mycobacterium tuberculosis)",
    "assigned label": "class 0"
  },
  {
    "compound": "Cc1noc2ncnc(Sc3ccccc3Cl)c12",
    "target or system": "Replicative DNA helicase DnaB (Mycobacterium tuberculosis)",
    "assigned label": "class 1"
  }
]
